Measurement protocol: MM1S myeloma cell viability, profiling panel, resazurin fluorescence, basal, 24 h, PK04 Diversity Set (AID 1174);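 note: MM1S multiple myeloma cell line; test concentration not given here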
Condition summary: higher = more signal, called active from +8 up or from −8 down
Recorded z-score by entry
Assay endpoint: z-score

Molecule	Observed
CCOC(=O)C1=CC[C@@H](c2ccccc2)N(S(=O)(=O)c2ccc(C)cc2)[C@H]1C#N	-1.08
COc1ccc(CCNC(=O)[C@@H]2c3ccccc3C(=O)N(CC34CC5CC(CC(C5)C3)C4)[C@H]2c2ccc(CO)cc2)cc1	-1.05
O=C1NC(=O)C2C1C=CC(C(O)c1cccc(O)c1)N2Nc1ccc(Cl)cc1Cl (configuration not stated)	-1.31
CC1(C)OC[C@@]23C=C(Br)[C@@H](C[C@H]12)[C@@]1(CO1)C3=O	0.0059
CO[C@H]1O[C@H](CO)[C@@H](OC(=O)Nc2ccccc2)[C@@H]2OC(=O)[C@H](Cc3ccccc3)C/C=C/C[C@@H](Cc3ccccc3)C(=O)O[C@@H]12	-3.52
COC(=O)[C@@]1(Cc2ccc(F)cc2)[C@H]2c3cc(C(=O)N(C)C)n(CCn4cc([N+](=O)[O-])nc4C)c3C[C@H]2CN1C(=O)c1ccccc1	-1.05
C=CCC(OC(C)=O)[C@@H]1[C@@H](N(Cc2ccc(-c3cccc(C(F)(F)F)c3)o2)C(=O)Cc2ccc(OC)cc2)c2cc(OCCCO)ccc2N1C(=O)c1ccc2ccccc2n1 (some centres not stated)	0.271
